- Test system: Vero E6 cells
- Method: Cell viability, SRB assays
- Test context: read-out: CC50 (half-cytotoxic concentration); Vero E6 cells, SRB assays
Readout type: CC50

-- ask // returns reported CC50 for input "C[n+]1ccc(-c2c3nc(c(-c4cc[n+](C)cc4)c4ccc([nH]4)c(-c4cc[n+](C)cc4)c4nc(c(-c5cc[n+](C)cc5)c5ccc2[nH]5)C=C4)C=C3)cc1"
-- reply > 1000 µM

====

- Method: in vitro
- Test context: African green monkey
Readout type: CC50 (µM)
Numbers only, in µM.

-- ask // returns reported CC50 for input NCCOc1cc(C(=O)Nc2cc(OCCN3CCCC3)c3ccccc3n2)nc(C(=O)Nc2cc(OCCN3CCCC3)c3ccccc3n2)c1 [PDP]
-- reply 4.9
